target: T1, human Tim-3 expressed on the cell surface (human, UniProt Q8TDQ0 22-301); experiment: flow cytometry, CHO-human Tim-3 cells;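 further: antibodies bound on ice for 60 min, detected by PE anti-human IgG Fc secondary, mean fluorescence intensity fit to one-site specific binding with Hill slope, parental CHO cells as nonspecific control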
T1 construct: also called hTim-3; Human Tim-3 (CHO)
# reported pKd; entries follow
Expect pKd as a plain number equal to -log10 of the molar concentration.

h22E11-VK2-28 × h22E11-5-IgG-HC (antibody, V domains shown, Humanized m22E11) VH: EVQLVESGGGLVQPGGSLRLSCAVSGFSLTSYGVHWVRQAPGKGLEWLVVIWSDGSTTYNSALKSRFTISKDNAKNSVYLQMNSLRAEDTAVYYCARQGGYRYDDAMDYWGQGTLVTVSS VL: DIVLTQSPLSLPVTPGEPASISCKASQSVDYDGNSYVNWYLQKPGQSPQLLIYAASNLESGVPDRFSGSGSGTDFTLKISRVEAEDVGVYYCQQSNEDPYTFGQGTKVEIK = 9.10

h22E11-5-IgG-LC × h22E11-VH4-30-4 (antibody, V domains shown, Humanized m22E11) VH: QVQLQESGPGLVKPSQTLSLTCTVSGFSLTSYGVHWIRQPPGKGLEWLVVIWSDGSTTYNPSLKSRVTISKDTSKNQVSLKLSSVTAADTAVYYCARQGGYRYDDAMDYWGQGTLVTVSS VL: EIVLTQSPGTLSLSPGERATLSCKASQSVDYDGNSYVAWYQQKPGQAPRLLIYAASNLESGIPDRFSGSGSGTDFTLTISRLEPEDFAVYYCQQSNEDPYTFGQGTKVEIK has a reported pKd of 8.43

Where these numbers come from: patent US20200190192A1
